Target: ENL YEATS domain (AviSUMO-ENL YEATS) (Homo sapiens, UniProt Q03111)
Construct: encoding ENL YEATS (aa 1−148) was cloned in pET28a-; made in house; host or cells: E. coli BL21(DE3pLysS), co-expressed with BirA (pBirAcm)
Sequence (Q03111 1-148): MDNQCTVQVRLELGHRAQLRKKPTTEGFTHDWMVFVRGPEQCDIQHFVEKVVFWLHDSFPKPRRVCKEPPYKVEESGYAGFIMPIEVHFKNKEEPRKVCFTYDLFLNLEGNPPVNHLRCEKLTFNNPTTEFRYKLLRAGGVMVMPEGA
Test: Phage panning of BuK-containing 7-mer library against AviSUMO-ENL YEATS with Illumina NGS abundance
Conditions: sheet ENLR3: round 3 of panning against ENL YEATS; TAG = amber codon (BuK); 7-mer library positions V1-V7
measure name: n (number of NGS reads of the unique amino acid sequence)
Just the number, please.

Challenge: Entry WWIIETAGW , system ENL YEATS domain (AviSUMO-ENL YEATS) (Homo sapiens, UniProt Q03111): what n (number of NGS reads of the unique amino acid sequence) was measured?
Response given: 27

Challenge: Request body: readout n (number of NGS reads of the unique amino acid sequence), system ENL YEATS domain (AviSUMO-ENL YEATS) (Homo sapiens, UniProt Q03111), query WSIIETAGG . Return the value.
Response given: 3

Challenge: Query for ENL YEATS domain (AviSUMO-ENL YEATS) (Homo sapiens, UniProt Q03111): what n (number of NGS reads of the unique amino acid sequence) does the record show for HFTLFTAGG ?
Response given: 2

Challenge: Hi! What's the reported n (number of NGS reads of the unique amino acid sequence) for HTAGSFCRL on ENL YEATS domain (AviSUMO-ENL YEATS) (Homo sapiens, UniProt Q03111)?
Response given: 1

Challenge: Short answer please: n (number of NGS reads of the unique amino acid sequence), ENL YEATS domain (AviSUMO-ENL YEATS) (Homo sapiens, UniProt Q03111), entry TAGVMSLYS
Response given: 2

Challenge: Enter reported n (number of NGS reads of the unique amino acid sequence) observed with ENL YEATS domain (AviSUMO-ENL YEATS) (Homo sapiens, UniProt Q03111) for WWIIETAGV
Response given: 16

Challenge: Short answer please: n (number of NGS reads of the unique amino acid sequence), ENL YEATS domain (AviSUMO-ENL YEATS) (Homo sapiens, UniProt Q03111), entry HMTLFTAGG
Response given: 1

Challenge: Entry HLTLFTAGG , system ENL YEATS domain (AviSUMO-ENL YEATS) (Homo sapiens, UniProt Q03111): what n (number of NGS reads of the unique amino acid sequence) was measured?
Response given: 2802

* * *

Measured percent (share of sequence reads), listed per entry for reference.
Molecular target: ENL YEATS domain (AviSUMO-ENL YEATS) (Homo sapiens, UniProt Q03111)
Construct: encoding ENL YEATS (aa 1−148) was cloned in pET28a-; made in house; host or cells: E. coli BL21(DE3pLysS), co-expressed with BirA (pBirAcm)
Sequence (Q03111 1-148): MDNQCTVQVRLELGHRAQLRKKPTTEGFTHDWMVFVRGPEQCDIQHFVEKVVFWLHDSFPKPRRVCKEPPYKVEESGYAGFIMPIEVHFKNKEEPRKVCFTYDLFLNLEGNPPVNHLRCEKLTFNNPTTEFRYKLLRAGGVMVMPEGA
Test: Phage panning of BuK-containing 7-mer library against AviSUMO-ENL YEATS with Illumina NGS abundance
Conditions: sheet ENLR3: round 3 of panning against ENL YEATS; TAG = amber codon (BuK); 7-mer library positions V1-V7
Reply with just the number (in %).

substance	observed value
QCGPRTAGN	0.002732
HAIYCYTAG	0.6912
LYGSTAGDC	0.0009106
HLTLFTAGD	0.003642
QYGPRTAGD	0.001821

Challenge: Find the recorded percent (share of sequence reads) belonging to CWVCTAGPH and report it.
Response given: 0.06739

Challenge: # input substance: QCGSRTAGD ; wanted: its percent (share of sequence reads)
Response given: 0.002732

Challenge: Requested read-out: percent (share of sequence reads). Entry: CFFTAGIMC
Response given: 0.0009106

Challenge: # lookup: percent (share of sequence reads) of WRIIETAGG
Response given: 0.008196

Challenge: Which value of percent (share of sequence reads) has been reported for FTAGIYTAA in the records?
Response given: 0.0009106

Challenge: Please look up its percent (share of sequence reads): YDVYCYY
Response given: 0.02368

Challenge: Fill in: percent (share of sequence reads) of YLYTAGVPC is ___
Response given: 0.9161

Challenge: Can you look up the measured percent (share of sequence reads) of YHVYCYTAG for me?
Response given: 0.001821

Challenge: What percent (share of sequence reads) value was documented for this substance, CWGFEKTAG ?
Response given: 0.0009106

Challenge: Name the reported percent (share of sequence reads) value associated with the substance QCGPLTAGD
Response given: 0.009106

* * *

Biological target: ENL YEATS domain (AviSUMO-ENL YEATS) (Homo sapiens, UniProt Q03111)
Construct: encoding ENL YEATS (aa 1−148) was cloned in pET28a-; made in house; host or cells: E. coli BL21(DE3pLysS), co-expressed with BirA (pBirAcm)
Sequence (Q03111 1-148): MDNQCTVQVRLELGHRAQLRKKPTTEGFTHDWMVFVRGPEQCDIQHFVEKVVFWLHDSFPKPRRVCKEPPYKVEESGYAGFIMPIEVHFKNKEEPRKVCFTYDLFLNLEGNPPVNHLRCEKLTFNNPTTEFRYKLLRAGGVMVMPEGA
Experiment: Phage panning of BuK-containing 7-mer library against AviSUMO-ENL YEATS with Illumina NGS abundance
Conditions: sheet ENLR3: round 3 of panning against ENL YEATS; TAG = amber codon (BuK); 7-mer library positions V1-V7
measure name: n (number of NGS reads of the unique amino acid sequence)
Lab note: write the figure by itself, no unit.

Observe how each entry below is paired with its result.
substance	observed value
WWIIEQG	2
YDVFCYTAG	8
NAIYCYTAG	1

Challenge: So what n (number of NGS reads of the unique amino acid sequence) did FKCTAGNGC get with ENL YEATS domain (AviSUMO-ENL YEATS) (Homo sapiens, UniProt Q03111)?
Response given: 1

Challenge: Give ENL YEATS domain (AviSUMO-ENL YEATS) (Homo sapiens, UniProt Q03111) n (number of NGS reads of the unique amino acid sequence) for QCGPRTAGY
Response given: 10

Challenge: Request: n (number of NGS reads of the unique amino acid sequence), test system ENL YEATS domain (AviSUMO-ENL YEATS) (Homo sapiens, UniProt Q03111), entry GRAVDTAGG
Response given: 1

Challenge: What n (number of NGS reads of the unique amino acid sequence) appears in the records for this substance with ENL YEATS domain (AviSUMO-ENL YEATS) (Homo sapiens, UniProt Q03111)? QCGTRTAGD
Response given: 13

Challenge: API: value(readout= n (number of NGS reads of the unique amino acid sequence), system= ENL YEATS domain (AviSUMO-ENL YEATS) (Homo sapiens, UniProt Q03111), query= WWVAGPTAG )
Response given: 70
